Where do these numbers come from? They come from ChEMBL document CHEMBL4689842.

Test system: Fibroblast
protocol.details: Multiplex assay against human fibroblast
Format: toxicity, cell-based
conditions.used: 24 h, 1 µM, compound concentration 1 uM, replicate 1
endpoint: Population Pyknosed Nuclei (%)
Quick note: number first, unit second.

Example entries and their recorded answers appear below.
CN[C@@H]1C[C@H]2O[C@@](C)([C@@H]1OC)n1c3ccccc3c3c4c(c5c6ccccc6n2c5c31)C(=O)NC4 [STAUROSPORINE]    35%
COc1ccc(-c2ccc3c(N4CCOCC4)nc(N4C[C@@H](C)O[C@@H](C)C4)nc3n2)cc1CO [Ku-0063794]    11%

Now consider a different compound.
Query for Fibroblast: what Population Pyknosed Nuclei (%) does the record show for C=C1/C(=C\C=C2/CCC[C@]3(C)[C@@H]([C@H](C)/C=C/[C@H](C)C(C)C)CC[C@@H]23)C[C@@H](O)C[C@@H]1O [DOXERCALCIFEROL] ?
34%

* * *

Test system: HEK-293T
protocol.details: Multiplex assay against HEK293T
Type: toxicity, cell-based
conditions.used: human, 48 h, 1 µM, compound concentration 1 uM, replicate 1
The entries below come with measured Population Membrane Permeable-Phenotype (%) values attached.
Lab book: enter the figure in %, no units written.

Look over these answered cases.
Cl.Oc1ccc2c3c1O[C@H]1c4[nH]c5c(c4C[C@@]4(O)[C@@H](C2)N(CC2CC2)CC[C@]314)C[C@@]1(O)[C@H]2Cc3ccc(O)c4c3[C@@]1(CCN2CC1CC1)[C@H]5O4    2
CCOc1cc2ncc(C#N)c(Nc3ccc(OCc4ccccn4)c(Cl)c3)c2cc1NC(=O)/C=C/CN(C)C    2
C=C1/C(=C\C=C2/CCC[C@]3(C)[C@@H]([C@H](C)/C=C/[C@H](C)C(C)C)CC[C@@H]23)C[C@@H](O)C[C@@H]1O    0

Name the reported Population Membrane Permeable-Phenotype (%) value associated with the compound `CNc1cc(Oc2cc(C(=O)Nc3cc(N4CCN(C)CC4)cc(C(F)(F)F)c3)ccc2C)ncn1`
1

Which Population Membrane Permeable-Phenotype (%) reading was recorded for the compound `CCN1CCN(Cc2ccc(Nc3ncc(F)c(-c4cc(F)c5nc(C)n(C(C)C)c5c4)n3)nc2)CC1.CS(=O)(=O)O` ?
0

# Population Membrane Permeable-Phenotype (%) lookup, item CN1C2CCC1CC(OC(c1ccc(F)cc1)c1ccc(F)cc1)C2.Cl (stereo unspecified)
7

I would be grateful if you could share the reported Population Membrane Permeable-Phenotype (%) for `CCCn1c(=O)c2[nH]c(-c3cnn(Cc4cccc(C(F)(F)F)c4)c3)nc2n(CC)c1=O` .
0

Which Population Membrane Permeable-Phenotype (%) value belongs to `Cl.O=c1c2cccn2c2ccccc2n1CCCN1CCC(c2ccc(Cl)cc2)CC1` ?
2

* * *

Tested on: HEK-293T
protocol.details: Multiplex assay against HEK293T
Assay type: toxicity, cell-based
conditions.used: human, 12 h, 10 µM, compound concentration 10 uM, replicate 1
endpoint: Population Normal (%)
State the answer as a number, implicitly in %.

Recorded Population Normal (%), per entry:
COC(=N)c1nc2ccc3ncnc(Nc4ccc(OC)cc4F)c3c2s1    89
CCc1cccc(CC)c1NC(=O)c1nn(C)c2c1CCc1cnc(Nc3ccc(N4CCN(C)CC4)cc3OC)nc1-2    85
C=CCn1c(=O)c2cnc(Nc3ccc(N4CCN(C)CC4)cc3)nc2n1-c1cccc(C(C)(C)O)n1    82
CCCS(=O)(=O)Nc1ccc(F)c(C(=O)c2c[nH]c3ncc(Cl)cc23)c1F    86
Cl.O=c1c2cccn2c2ccccc2n1CCCN1CCC(c2ccc(Cl)cc2)CC1    82
Cn1nc(C(F)(F)F)cc1-c1cnc(N2CCc3cc(S(=O)(=O)Nc4c(F)cc(Cl)cc4F)cc(N4CCCC4=O)c32)nc1    88
O=C(Nc1ccc(-n2nc(-c3cccnc3)cc2C(F)(F)F)cn1)c1ccc(-c2ccccc2)c(F)c1    88

Let's switch to this compound now.
Reported Population Normal (%), compound `CNC(=O)c1ccc(Nc2nc(OC3CCCC3)c3c(-c4ccc5nc(C)oc5c4)c[nH]c3n2)c(OC)c1` : ____
79

* * *

Tested on: Fibroblast
protocol.details: Multiplex assay against human fibroblast
Format: toxicity, cell-based
conditions.used: 24 h, 1 µM, compound concentration 1 uM, replicate 2
endpoint: Total Cell Count

Completed entries (count: 6):
Cc1ccc(C(=O)Nc2cccc(C(F)(F)F)c2)cc1Nc1nc(-c2cccnc2)nc2c1cnn2C    101
C=CCn1c(=O)c2cnc(Nc3ccc(N4CCN(C)CC4)cc3)nc2n1-c1cccc(C(C)(C)O)n1 [ADAVOSERTIB]    82
CCCn1c(=O)c2[nH]c(-c3cnn(Cc4cccc(C(F)(F)F)c4)c3)nc2n(CC)c1=O [GS 6201]    81
O=C(Cc1ccc(-c2ccc(OCCN3CCOCC3)cc2)cn1)NCc1ccccc1 [TIRBANIBULIN]    155
COc1ccc(S(=O)(=O)N(CCO)c2ccccc2CN(C)C/C=C/c2ccc(Cl)cc2)cc1.O=P(O)(O)O    75
NC(=O)c1cccc(-c2cc(Nc3ccc(OC(F)(F)F)cc3)ncn2)c1    90

Report Total Cell Count for `Cl.O=C(c1ccc(Nc2nccc(-c3cc4ccccc4s3)n2)cc1)N1CCC(N2CCCC2)CC1` please.
108

Bench note: what Total Cell Count did Cc1cn(-c2cc(NC(=O)c3ccc(C)c(Nc4nccc(-c5cccnc5)n4)c3)cc(C(F)(F)F)c2)cn1 [NILOTINIB] show?
67

* * *

Entries and their Population Healthy Nuclei (%) values follow.
Test system: U2OS
protocol.details: Multiplex assay against U2OS
Assay type: toxicity, cell-based
conditions.used: human, 12 h, 10 µM, compound concentration 10 uM, replicate 1
Please state the figure in %; there is no need to write the unit.

Solved cases (2 shown):
O=C1N/C(=N/c2ccccc2F)S/C1=C\c1ccc(C(=O)O)cc1    82
CCCS(=O)(=O)Nc1ccc(F)c(C(=O)c2c[nH]c3ncc(Cl)cc23)c1F    89

Query: Population Healthy Nuclei (%); subject: `CCN1CCN(c2ccc(Nc3cc(N(C)C(=O)Nc4c(Cl)c(OC)cc(OC)c4Cl)ncn3)cc2)CC1`
87

* * *

System: Fibroblast
protocol.details: Multiplex assay against human fibroblast
Type: toxicity, cell-based
conditions.used: 12 h, 1 µM, compound concentration 1 uM, replicate 2
endpoint: Population Fragmented Nuclei (%)
Could you give me the number in %? Just the number is fine.

If you can, please state the reported Population Fragmented Nuclei (%) value of O=C(Cc1ccc(-c2ccc(OCCN3CCOCC3)cc2)cn1)NCc1ccccc1 [TIRBANIBULIN] .
5

Which measured Population Fragmented Nuclei (%) value corresponds to O=C1NC(=O)C(c2cnc3ccccn23)=C1c1cn2c3c(cc(F)cc13)CN(C(=O)N1CCCCC1)CC2 [LY-2090314] ?
3

Reported Population Fragmented Nuclei (%), molecule C=CCn1c(=O)c2cnc(Nc3ccc(N4CCN(C)CC4)cc3)nc2n1-c1cccc(C(C)(C)O)n1 [ADAVOSERTIB] : ____
48

Consider the molecule `O=C1N/C(=N/c2ccccc2F)S/C1=C\c1ccc(C(=O)O)cc1` and give its measured Population Fragmented Nuclei (%).
3

* * *

Test system: U2OS
protocol.details: Multiplex assay against U2OS
Type: toxicity, cell-based
conditions.used: human, 24 h, 10 µM, compound concentration 10 uM, replicate 2
// map Population Tubulin-Different-Phenotype (%) onto a label; ranges lower range = under 20%, middle range = from 20% up to 80%, upper range = 80% and over

Which class is correct for the following compound? CN(C)C(=O)C(CCN1CCC(O)(c2ccc(Cl)cc2)CC1)(c1ccccc1)c1ccccc1.Cl [LOPERAMIDE HYDROCHLORIDE]
upper range

# bin lookup: classify `CCCS(=O)(=O)c1nc(NC2CC2)cc(-c2ccc3c(ccn3C3CC(C)(C)NC(C)(C)C3)c2)n1` by its Population Tubulin-Different-Phenotype (%)
upper range

Exercise: read the entry `CCN1CCN(c2ccc(Nc3cc(N(C)C(=O)Nc4c(Cl)c(OC)cc(OC)c4Cl)ncn3)cc2)CC1` and state which class it falls under.
lower range

Where would `CCCn1c(=O)c2[nH]c(-c3cnn(Cc4cccc(C(F)(F)F)c4)c3)nc2n(CC)c1=O` land among the classes by reported Population Tubulin-Different-Phenotype (%)?
lower range

* * *

Test system: U2OS
protocol.details: Multiplex assay against U2OS
Type: toxicity, cell-based
conditions.used: human, 12 h, 10 µM, compound concentration 10 uM, replicate 2
endpoint: Total Cell Count
Output: the number by itself.

Consider the following illustrative entries.
CN1C2CCC1CC(OC(c1ccc(F)cc1)c1ccc(F)cc1)C2.Cl (configuration not stated)    78
Cc1cn(-c2cc(NC(=O)c3ccc(C)c(Nc4nccc(-c5cccnc5)n4)c3)cc(C(F)(F)F)c2)cn1    73
CCc1cccc(CC)c1NC(=O)c1nn(C)c2c1CCc1cnc(Nc3ccc(N4CCN(C)CC4)cc3OC)nc1-2    127
COCC(=O)NC/C=C/c1ccc2ncnc(Nc3ccc(Oc4ccc(C)nc4)c(C)c3)c2c1    62
Cc1ccc(C(=O)Nc2cccc(C(F)(F)F)c2)cc1Nc1nc(-c2cccnc2)nc2c1cnn2C    66

Which Total Cell Count reading was recorded for the compound `CCCS(=O)(=O)c1nc(NC2CC2)cc(-c2ccc3c(ccn3C3CC(C)(C)NC(C)(C)C3)c2)n1` ?
101

Please look up its Total Cell Count: `CCn1c(=O)c(-c2ccc(-c3cncs3)cc2Cl)cc2cnc(Nc3ccc(N4CCN(C)CC4)cc3)nc21`
77

Give the measured Total Cell Count of `COc1cc(N2CCN(C)CC2)ccc1Nc1ncc2c(n1)N(C)c1ccccc1C(=O)N2C` .
42

# lookup: Total Cell Count of `COc1cccc2cc(-c3nc([C@H]4CC[C@H](C(=O)O)CC4)n4ncnc(N)c34)[nH]c12`
101

Data request, read-out Total Cell Count, for `CCn1cc(-c2ccnc3[nH]c(-c4cccc(CN(C)C)c4)cc23)c(-c2ccc(NC(=O)N(C)C)cc2)n1`
76

Fill blank: measured Total Cell Count of the compound `CCN1CCN(c2ccc(Nc3cc(N(C)C(=O)Nc4c(Cl)c(OC)cc(OC)c4Cl)ncn3)cc2)CC1` is ____.
86

What measured Total Cell Count goes with `CCN1CCN(Cc2ccc(Nc3ncc(F)c(-c4cc(F)c5nc(C)n(C(C)C)c5c4)n3)nc2)CC1.CS(=O)(=O)O` ?
88

Tell me the measured Total Cell Count of `CNc1cc(Oc2cc(C(=O)Nc3cc(N4CCN(C)CC4)cc(C(F)(F)F)c3)ccc2C)ncn1` , please.
70

Report Total Cell Count for `O=C(Nc1ccc(-n2nc(-c3cccnc3)cc2C(F)(F)F)cn1)c1ccc(-c2ccccc2)c(F)c1` please.
65

Given `O=C(Nc1ccc(Cl)cc1)Nc1cccc(-c2cccc(N3CCCC3)n2)c1` , state its recorded Total Cell Count.
69

Tell me the measured Total Cell Count of CN(C)C(=O)C(CCN1CCC(O)(c2ccc(Cl)cc2)CC1)(c1ccccc1)c1ccccc1.Cl [LOPERAMIDE HYDROCHLORIDE] , please.
64

Look up Total Cell Count: `CCCS(=O)(=O)Nc1ccc(F)c(C(=O)c2c[nH]c3ncc(Cl)cc23)c1F`
101
